- System: Aspergillus fumigatus
- PROTOCOL_TEXT: checkerboard drug interaction (FICI, MICc);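 further: simplified diagonal checkerboard screen pairing antifungals with FPPS inhibitors against Aspergillus fumigatus, with FICI calculated under the Loewe additivity model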
- Format: cell-based
- CONDITION_DETAILS: A. fumigatus; KET:INH combination; MIC of the inhibitor in combination with KET
Listed here are molecules together with their documented INH MICc.
The reply should be a number, written without any unit.

Consider the reported INH MICc for these molecules:
MOLECULE: CCCCCCCCCN1CCC[C@H]1C(=O)N[C@@H](CC(=O)OC)C(=O)OC
OBSERVATION_TYPE: INH MICc
NUMERIC_RESULT: 128

MOLECULE: O=P(O)(O)C(O)(Cn1ccnc1)P(=O)(O)O [ZOL, zoledronate]
OBSERVATION_TYPE: INH MICc
NUMERIC_RESULT: 64

MOLECULE: CCCCCCCCCCn1cc[n+](CC(O)(P(=O)(O)O)P(=O)(O)O)c1 [10-ZOL, Decyl-zoledronate]
OBSERVATION_TYPE: INH MICc
NUMERIC_RESULT: 0.25

stdin: Can you look up the measured INH MICc of "CCCCCCCCCCCN1CCC[C@H]1C(=O)N[C@@H](CC(=O)O)C(=O)O" for me?
stdout: 128

stdin: I am curious: what INH MICc value has been reported for "CCCCCCCCCN1CCC[C@H]1C(=O)N[C@@H](CC(=O)O)C(=O)O" ?
stdout: 128

stdin: Which INH MICc value is on record for "CCCCCCCCCCN1CCC[C@H]1C(=O)N[C@@H](CC(=O)OC)C(=O)OC" ?
stdout: 32

###

- Tested on: Candida parapsilosis
- PROTOCOL_TEXT: MIC broth microdilution (CLSI)
- Assay type: cell-based
- CONDITION_DETAILS: Candida parapsilosis ATCC 22018
OBSERVATION_TYPE: MIC / MEC (µg/mL)
# number only, unit µg/mL dropped from output

These solved cases illustrate the format of a correct answer.
COMPOUND: CCC(C)n1ncn(-c2ccc(N3CCN(c4ccc(OCC5COC(Cn6cncn6)(c6ccc(Cl)cc6Cl)O5)cc4)CC3)cc2)c1=O (stereo not drawn)
U: µg/mL
MIC / MEC: 0.25
//
COMPOUND: OC(Cn1cncn1)(Cn1cncn1)c1ccc(F)cc1F
U: µg/mL
MIC / MEC: 2
//
COMPOUND: Nc1nc(=O)[nH]cc1F
U: µg/mL
MIC / MEC: 0.5
//
COMPOUND: CCCCCCCCCCn1cc[n+](CC(O)(P(=O)(O)O)P(=O)(O)O)c1 [10-ZOL, Decyl-zoledronate]
U: µg/mL
MIC / MEC: 1
//
COMPOUND: C[C@@H](c1ncncc1F)[C@](O)(Cn1cncn1)c1ccc(F)cc1F
U: µg/mL
MIC / MEC: 0.13

stdin: I would be grateful if you could share the reported MIC / MEC for CC(=O)N1CCN(c2ccc(OCC3COC(Cn4ccnc4)(c4ccc(Cl)cc4Cl)O3)cc2)CC1 (stereo not drawn) .
stdout: 0.03

###

- System: Aspergillus udagawae
- PROTOCOL_TEXT: MIC broth microdilution (CLSI)
- Type: cell-based
- CONDITION_DETAILS: Aspergillus udagawae 8G81
OBSERVATION_TYPE: MIC / MEC (µg/mL)
Could you give me the number in µg/mL? Just the number is fine.

stdin: Notebook: pull reported MIC / MEC for Aspergillus udagawae, entry CCC(C)n1ncn(-c2ccc(N3CCN(c4ccc(OCC5COC(Cn6cncn6)(c6ccc(Cl)cc6Cl)O5)cc4)CC3)cc2)c1=O (centres unmarked) [ITR, itraconazole]
stdout: 1

stdin: Hi! What's the reported MIC / MEC for C[C@@H]1[C@H](O)[C@@H](C)/C=C/C=C/C=C/C=C/C=C/C=C/C=C/[C@H](O[C@@H]2O[C@H](C)[C@@H](O)[C@H](N)[C@@H]2O)C[C@@H]2O[C@](O)(C[C@@H](O)C[C@@H](O)[C@H](O)CC[C@@H](O)C[C@@H](O)CC(=O)O[C@H]1C)C[C@H](O)[C@H]2C(=O)O [AMB, amphotericin B] on Aspergillus udagawae?
stdout: 2

stdin: What reported MIC / MEC corresponds to O=P(O)(O)C(O)(Cn1ccnc1)P(=O)(O)O [ZOL, zoledronate] on Aspergillus udagawae?
stdout: 256

stdin: I'm curious: which MIC / MEC was measured for CCCCCCCCCCn1cc[n+](CC(O)(P(=O)(O)O)P(=O)(O)O)c1 [10-ZOL, Decyl-zoledronate] tested on Aspergillus udagawae?
stdout: 1

stdin: Which measured MIC / MEC belongs to C[C@@H](c1ncncc1F)[C@](O)(Cn1cncn1)c1ccc(F)cc1F [VOR] , tested on Aspergillus udagawae?
stdout: 1

stdin: Recorded MIC / MEC for CC[C@H](C)C[C@H](C)CCCCCCCCC(=O)N[C@H]1C[C@@H](O)[C@@H](NCCN)NC(=O)[C@@H]2[C@@H](O)CCN2C(=O)[C@H]([C@H](O)CCN)NC(=O)[C@H]([C@H](O)[C@@H](O)c2ccc(O)cc2)NC(=O)[C@@H]2C[C@@H](O)CN2C(=O)[C@H]([C@@H](C)O)NC1=O [CAS, caspofungin] with Aspergillus udagawae, please?
stdout: 2

stdin: Notebook: pull reported MIC / MEC for Aspergillus udagawae, entry CC(=O)N1CCN(c2ccc(OCC3COC(Cn4ccnc4)(c4ccc(Cl)cc4Cl)O3)cc2)CC1 (centres unmarked) [KET, ketoconazole]
stdout: 8
